Target: human 5-HT2C INI (Homo sapiens, UniProt P28335)
Sequence (P28335 33-458): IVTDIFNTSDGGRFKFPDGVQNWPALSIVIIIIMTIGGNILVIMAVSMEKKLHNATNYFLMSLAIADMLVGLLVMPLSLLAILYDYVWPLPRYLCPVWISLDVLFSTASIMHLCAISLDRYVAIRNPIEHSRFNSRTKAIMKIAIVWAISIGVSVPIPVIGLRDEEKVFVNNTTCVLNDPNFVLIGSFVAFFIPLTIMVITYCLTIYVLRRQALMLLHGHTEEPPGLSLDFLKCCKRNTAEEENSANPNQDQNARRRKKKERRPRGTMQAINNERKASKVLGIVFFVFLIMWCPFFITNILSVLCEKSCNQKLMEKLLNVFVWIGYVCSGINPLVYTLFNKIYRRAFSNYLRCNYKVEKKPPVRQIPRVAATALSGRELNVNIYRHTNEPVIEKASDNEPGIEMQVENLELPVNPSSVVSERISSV
Assay: Gq-mediated calcium flux in HEK293 cells, h5-HT2C
Details: Ca2+ mobilization, HEK293 cells
Readout label: EC50 (nM)
Use nM as the unit, but write only the number.

Query: Bench note: what EC50 did CCN(C(=O)[C@@H]1C=C2c3cccc4[nH]cc(c34)C[C@H]2N(C)C1)C1CC1 [ECPLA, N-ethyl-N-cyclopropyl lysergamide] show?
Result: 183

###

Target: α2A (Homo sapiens, UniProt P08913)
Sequence (P08913 whole entry): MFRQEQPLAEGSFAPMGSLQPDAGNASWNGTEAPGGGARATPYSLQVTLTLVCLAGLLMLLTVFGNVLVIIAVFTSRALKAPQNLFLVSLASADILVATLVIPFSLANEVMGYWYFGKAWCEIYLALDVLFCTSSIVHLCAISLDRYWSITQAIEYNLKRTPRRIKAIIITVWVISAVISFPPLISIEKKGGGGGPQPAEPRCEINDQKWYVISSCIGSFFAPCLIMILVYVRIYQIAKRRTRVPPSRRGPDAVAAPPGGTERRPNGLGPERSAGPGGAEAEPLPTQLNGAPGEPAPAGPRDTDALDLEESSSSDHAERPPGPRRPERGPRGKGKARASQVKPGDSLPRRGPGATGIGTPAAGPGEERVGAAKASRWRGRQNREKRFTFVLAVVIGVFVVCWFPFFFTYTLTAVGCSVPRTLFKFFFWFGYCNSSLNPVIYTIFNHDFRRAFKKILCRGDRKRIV
Readout label: Ki (µM)
Use µM as the unit, but write only the number.

Query: Bench note: what Ki did CCN(C(=O)[C@@H]1C=C2c3cccc4[nH]cc(c34)C[C@H]2N(C)C1)C1CC1 [ECPLA, N-ethyl-N-cyclopropyl lysergamide] show?
Result: 0.144
